assay procedure: Drug loading of Compound 221-loaded implants (HPLC)
Format: physicochemical
condition info: implants (hot melt extrusion), 99% PLGA75125 4A and 1% PLGA5050-PEG5K
measured endpoint: Compound 221 loading (w/w) (%)

# compound, readout number
data = [
    ("O=c1c2nc(Br)n([C@@H]3O[C@@H]4CO[P@@](=O)(S)O[C@H]4[C@H]3O)c2nc2[nH]c(-c3ccccc3)cn12 [Compound 221-BEZ]", 30.0),
    ("O=c1c2nc(Br)n([C@@H]3O[C@@H]4CO[P@@](=O)(S)O[C@H]4[C@H]3O)c2nc2[nH]c(-c3ccccc3)cn12 [Compound 221-FA]", 10.5),
    ("O=c1c2nc(Br)n([C@@H]3O[C@@H]4CO[P@@](=O)(S)O[C@H]4[C@H]3O)c2nc2[nH]c(-c3ccccc3)cn12 [Compound 221-BEN]", 30.0),
]

###

The following molecules are shown together with reported Compound 221 loading (w/w) values.
assay procedure: Drug loading of Compound 221-loaded implants (HPLC)
Format: physicochemical
condition info: implants (hot melt extrusion), 99% PLGA75125 4A and 1% PLGA5050-PEG5K
measured endpoint: Compound 221 loading (w/w) (%)

# molecule, measured endpoint, u, readout number
records = [
    ("O=c1c2nc(Br)n([C@@H]3O[C@@H]4CO[P@@](=O)(S)O[C@H]4[C@H]3O)c2nc2[nH]c(-c3ccccc3)cn12 [Compound 221-Na]", "Compound 221 loading (w/w)", "%", 17.4),
    ("O=c1c2nc(Br)n([C@@H]3O[C@@H]4CO[P@@](=O)(S)O[C@H]4[C@H]3O)c2nc2[nH]c(-c3ccccc3)cn12 [Compound 221-TEA]", "Compound 221 loading (w/w)", "%", 15.75),
    ("O=c1c2nc(Br)n([C@@H]3O[C@@H]4CO[P@@](=O)(S)O[C@H]4[C@H]3O)c2nc2[nH]c(-c3ccccc3)cn12 [Compound 221-Ca]", "Compound 221 loading (w/w)", "%", 30.0),
]

###

assay procedure: In vitro drug release from Compound 221-loaded implants
Assay type: physicochemical
condition info: implants (hot melt extrusion), 99% PLGA75125 4A and 1% PLGA5050-PEG5K; PBS with 1% Tween 20, 37 °C

# molecule, Release duration / days
records = [
    ("O=c1c2nc(Br)n([C@@H]3O[C@@H]4CO[P@@](=O)(S)O[C@H]4[C@H]3O)c2nc2[nH]c(-c3ccccc3)cn12 [Compound 221-Ca]", 40),
    ("O=c1c2nc(Br)n([C@@H]3O[C@@H]4CO[P@@](=O)(S)O[C@H]4[C@H]3O)c2nc2[nH]c(-c3ccccc3)cn12 [Compound 221-FA]", 26),
    ("O=c1c2nc(Br)n([C@@H]3O[C@@H]4CO[P@@](=O)(S)O[C@H]4[C@H]3O)c2nc2[nH]c(-c3ccccc3)cn12 [Compound 221-Na]", 14),
    ("O=c1c2nc(Br)n([C@@H]3O[C@@H]4CO[P@@](=O)(S)O[C@H]4[C@H]3O)c2nc2[nH]c(-c3ccccc3)cn12 [Compound 221-BEZ]", 40),
    ("O=c1c2nc(Br)n([C@@H]3O[C@@H]4CO[P@@](=O)(S)O[C@H]4[C@H]3O)c2nc2[nH]c(-c3ccccc3)cn12 [Compound 221-TEA]", 40),
    ("O=c1c2nc(Br)n([C@@H]3O[C@@H]4CO[P@@](=O)(S)O[C@H]4[C@H]3O)c2nc2[nH]c(-c3ccccc3)cn12 [Compound 221-BEN]", 40),
]
